Entry source: the NIST ThermoML archive (doi:10.1016/j.jct.2017.02.024)

test-details: mn = molality of the nth substance listed, in mol/kg
assay-setup: 313.15 K; 100 kPa; Liquid; Vibrating tube method; m1 = 0.1
Readings of mass density for the listed compounds
Respond with the bare value in kg/m3.

// worked examples, mass density included
compound="C[C@H](N)C(=O)O [(S)-2-aminopropanoic acid] + O" quantity_measured="mass density" recorded_result=995.04
compound="N=C(N)NCCC[C@H](N)C(=O)O [L-arginine] + O" quantity_measured="mass density" recorded_result=997.08
compound="C[C@@H](O)[C@H](N)C(=O)O [L-threonine] + O" quantity_measured="mass density" recorded_result=996.36

Consider now this further compound.
Task: I'd like to know its mass density. The compound in question is CC(C)[C@H](N)C(=O)O [L-valine] + O
Result: 994.85
